Molecular target: human melanocortin 1 receptor (human, UniProt Q01726 1-317)
Sequence (Q01726 whole entry): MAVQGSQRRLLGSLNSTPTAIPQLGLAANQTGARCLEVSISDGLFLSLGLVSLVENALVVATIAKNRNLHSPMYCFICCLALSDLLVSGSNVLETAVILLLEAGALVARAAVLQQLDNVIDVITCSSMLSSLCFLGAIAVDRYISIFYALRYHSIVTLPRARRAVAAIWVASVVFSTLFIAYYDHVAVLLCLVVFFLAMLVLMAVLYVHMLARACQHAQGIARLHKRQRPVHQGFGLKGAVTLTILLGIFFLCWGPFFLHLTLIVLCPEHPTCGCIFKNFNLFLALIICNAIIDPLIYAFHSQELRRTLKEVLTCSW
Assay: cell-based or functional assay
Positions of bridges follow the written chain, without caps; N, C: chain ends. Non-standard residues stand in square brackets, D forms with d. Sar = CNCC(=O)O
parameter: MC1R cAMP EC50 (nM)
Write the answer as a number in nM, unit excluded.

Prompt: Tell me the measured MC1R cAMP EC50 of cyclo(C[Sar]H[dF]RWC[Sar]H[dF]RW) (disulfide 1-7; SMILES CN1CC(=O)N[C@@H](Cc2c[nH]cn2)C(=O)N[C@H](Cc2ccccc2)C(=O)N[C@@H](CCCNC(=N)N)C(=O)N[C@@H](Cc2c[nH]c3ccccc23)C(=O)N[C@H]2CSSC[C@H](NC(=O)[C@H](Cc3c[nH]c4ccccc34)NC(=O)[C@H](CCCNC(=N)N)NC(=O)[C@@H](Cc3ccccc3)NC(=O)[C@H](Cc3c[nH]cn3)NC(=O)CN(C)C2=O)C1=O, also called c[c[Cys-Sar-His-D-Phe-Arg-Trp-Cys]-Sar-His-D-Phe-Arg-Trp]) [Chem. 31] , please.
Completion: 7.78

Prompt: What value of measured MC1R cAMP EC50 is listed for cyclo(CH[dF]RWGCH[dF]RWG) (disulfide 1-7; SMILES N=C(N)NCCC[C@@H]1NC(=O)[C@@H](Cc2ccccc2)NC(=O)[C@H](Cc2c[nH]cn2)NC(=O)[C@@H]2CSSC[C@H](NC(=O)CNC(=O)[C@H](Cc3c[nH]c4ccccc34)NC1=O)C(=O)N[C@@H](Cc1c[nH]cn1)C(=O)N[C@H](Cc1ccccc1)C(=O)N[C@@H](CCCNC(=N)N)C(=O)N[C@@H](Cc1c[nH]c3ccccc13)C(=O)NCC(=O)N2, also called c[c[Cys-His-D-Phe-Arg-Trp-Gly-Cys]-His-D-Phe-Arg-Trp-Gly]) [Chem. 4] ?
Completion: 0.67

The origin of these recorded values is patent US20200223889A1.
